Task for the reader: assign each of the following compounds its reported z-score.
- MEASUREMENT DESCRIPTION: qHTS for identification of novel therapeutic agents for treatment of microphthalmiaassociated transcription factor (MiT) renal cell carcinoma (RCC) (AID 1963991);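 also: curves scaled with 100% = DMSO viability and 0% = empty wells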
- CONDITION DESCRIPTION: TFE3-RCC viability, CellTiter-Glo, 48 h; measured here: UOK124 Z-AUC; stronger effect = lower value
Results filed as inconclusive are left out.

Ask | Entry O=c1n(CCCN2CCN(c3cccc(Cl)c3)CC2)nc2ccccn12 : reported z-score = ?
Reply | 0.322

Ask | Report z-score for O=C(O)[C@@H](c1ccc(OCc2ccc3ccccc3n2)cc1)C1CCCC1 please.
Reply | 0.636

Ask | # z-score lookup, item OCCn1cc(-c2cnc3nnn(Cc4ccc5ncccc5c4)c3n2)cn1
Reply | 0.338

* * *

- MEASUREMENT DESCRIPTION: NS1 protein of Zika virus - qHTS assay to identify small molecule inhibitors in human HEK 293 cells (AID 1347053); also: nearly all actives have a fitted effect of over 55% in size
- CONDITION DESCRIPTION: HEK293 ZIKV MR766 infection, NS1 TR-FRET, 24 h; series mostly up to 46.1 µM
Results filed as inconclusive are left out. The source made the active and inactive calls. Calls follow the shape of the dose curve; as a rule, active = well fitted inhibition curve with a large enough effect; inconclusive = small, poorly fitted or top-dose-only effect; inactive = no such curve, though single readings can be large or run the other way.
Respond with a class label; see active, inactive

Ask | Assay result, entry NC(N)=NC(=O)c1nc(Cl)c(N)nc1N — outcome?
Reply | inactive

Ask | Give the logged outcome of this assay for the following compound: OC[C@H](Cc1ccccc1)Nc1nc(Oc2ccc3c(c2)CCC3)nc2c1ncn2Cc1ccc(-c2ccccc2)cc1
Reply | active

Ask | For this compound, state the assay outcome: COc1ccc2nc(S(=O)Cc3ncc(C)c(OC)c3C)[nH]c2c1 (stereo not given)
Reply | inactive

Ask | What did this assay record as the result for N#CC[C@H](C1CCCC1)n1cc(-c2ncnc3[nH]ccc23)cn1 ?
Reply | inactive

Ask | Just curious, what result did O=C(Nc1nc2ccccc2n1CCN1CCOCC1)c1cccc([N+](=O)[O-])c1 get here?
Reply | inactive

* * *

- MEASUREMENT DESCRIPTION: Quantitative High-Throughput drug screen in 47 multiple myeloma cell lines against the NCATS MIPE library collection: OCIMY1_PLB cell viability assay (AID 1918979); also: nearly all actives have a fitted effect of over 35% in size;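 as to viability: 100% = DMSO-only wells and 0% = cell-free media-only wells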
- CONDITION DESCRIPTION: OCI-MY1 myeloma viability, CellTiter-Glo ATP, 48 h; series mostly up to 45.8 µM
Records with an inconclusive call do not appear. Activity calls are given as the source filed them. The call rests on the fitted dose curve; in most records, active means well fitted cell-killing curve with a large enough effect; inconclusive means small, poorly fitted or top-dose-only effect, or effect the other way; inactive means no such curve, though single readings can be large or run the other way.
Pick from true (active), false (inactive) when you respond.

Ask | Assay outcome for CC[C@H](Nc1ncnc2nc[nH]c12)c1nc2cccc(F)c2c(=O)n1-c1ccccc1 : what was it?
Reply | true

Ask | How was Nc1ccc(S(=O)(=O)Nc2ccnn2-c2ccccc2)cc1 classified in this test?
Reply | false

Ask | Recorded test call requested for CCCCNc1cc(C(=O)O)cc(S(N)(=O)=O)c1Oc1ccccc1
Reply | false

Ask | For Cc1cc2c(C(C)C)c(O)c(O)c(C=O)c2c(O)c1-c1c(C)cc2c(C(C)C)c(O)c(O)c(C=O)c2c1O , which call appears in the assay record?
Reply | true

Ask | Tell me the assay call for COc1ccc(-c2oc3cc(OC)ccc3c2C(=O)c2ccc(C#N)cc2)cc1 please.
Reply | false

Ask | Dear colleague, could you share the recorded outcome for COc1cc(Nc2ncc3c(n2)-c2ccc(Cl)cc2C(c2c(F)cccc2OC)=NC3)ccc1C(=O)O when you have a moment?
Reply | false

Ask | What call does the record list for COc1ccc(-c2c(-c3ccc(O)cc3O)n[nH]c2C)cc1 ?
Reply | false

Ask | In this assay, the call recorded for COc1cccc2cc(-c3nc(C4CCC(C(=O)O)CC4)n4ncnc(N)c34)[nH]c12 (stereo not given) was what?
Reply | true

Ask | // param item: CCC(C)n1ncn(-c2ccc(N3CCN(c4ccc(OC[C@H]5CO[C@](Cn6cncn6)(c6ccc(Cl)cc6Cl)O5)cc4)CC3)cc2)c1=O (stereo not given in full) ; yields the recorded call
Reply | true

Ask | Test call, this molecule: CC1(C)CNc2cc(NC(=O)c3cccnc3NCc3ccncc3)ccc21
Reply | false

Ask | For CCC(=O)N[C@H]1CC[C@H](C(=O)N(C)c2ccc(-c3nc4ccccc4o3)cc2)C1 , which call appears in the assay record?
Reply | false

Ask | Which result was noted for this molecule in the test: Cc1ccccc1C(C(=O)NC1CCCC1)N(C(=O)Cn1cnc2ccccc21)c1cccc(F)c1 (stereo not given)
Reply | false

Ask | Outcome logged for O=c1ncn2nc(Sc3ccc(F)cc3F)ccc2c1-c1c(Cl)cccc1Cl in this assay:
Reply | false

Ask | Identify the outcome logged in this assay for the molecule shown: Cn1c(=O)c(F)c(Nc2ccc(I)cc2F)c2c(=O)n(C[C@@H](O)CO)cnc21
Reply | false

Ask | What outcome does the record of this test show for NC(=O)c1cnccn1 ?
Reply | false

Ask | Check the results log: what was the call for Cc1cnc(NC(=O)C2=C(O)c3ccccc3S(=O)(=O)N2C)s1 ?
Reply | false

Ask | # lookup: test call for COc1cc2nccc(Oc3ccc(NC(=O)NC4CC4)c(Cl)c3)c2cc1C(N)=O
Reply | true

Ask | Assay result, entry O=S(=O)(N=Cc1c(O)ccc2ccccc12)c1cccs1 — outcome?
Reply | false

Ask | I would be grateful if you could indicate the recorded call for CNC(=O)c1ccc(N2C(=S)N(c3ccc(C#N)c(C(F)(F)F)c3)C(=O)C2(C)C)cc1F .
Reply | false

Ask | Field: outcome | Entry: CC1(C)SCCN(S(=O)(=O)c2ccc(OCC#CCO)cc2)[C@@H]1C(=O)NO
Reply | false
